Where do these numbers come from? They come from patent US8592451B2.

Assay: L-cysteine adduction kinetics in vitro (HPLC)
Format: physicochemical
Conditions: pH 7.4 phosphate buffer with L-cysteine; calculated at [NMBA]0 0.0000493 M (50 μg/ml), pH 7.4, 37° C.; read-out: L-cysteine adduction reaction half time t1/2
QUANTITY: half-life at 50 μg/ml
Note to self: number, then unit, no commentary.

Query COc1ccc(C[C@@H]2c3cc(OC)c(OC)cc3CC[N@@+]2(C)CCCOC(=O)/C=C\C(=O)OCCC[N@+]2(C)CCc3cc(OC)c(OC)cc3[C@H]2Cc2cc(OC)c(OC)c(OC)c2)cc1OC yields half-life at 50 μg/ml of 13.7 min

---

Experiment: L-cysteine adduction kinetics in vitro (HPLC)
Format: physicochemical
Conditions: pH 7.4 buffered solution with L-cysteine; calculated at [NMBA]0 0.000188 M (200 μg/ml), pH 7.4, 37° C.; read-out: L-cysteine adduction reaction half time t1/2
Experimental: In a second experiment, to evaluate degradation in the presence of L-cysteine, buffered solutions (pH 7.4) of gantacurium, CW 002 or CW 011 were freshly prepared at 37° C. to give experimental concentrations of 1000 μg/mL (CW 002 and CW 011) and 200 μg/mL (gantacurium), after addition to and mixing with a 5% Molar excess of L-cysteine at time=0. […] [formula] […] An adduction reaction half time can be calculated by solving for ka to be used in equation 3. […]
QUANTITY: half-life at 200 μg/ml (s)
Give just the number in s; leave the unit off.

Query COc1cc2c(cc1OC)[C@H](c1cc(OC)c(OC)c(OC)c1)[N@@+](C)(CCCOC(=O)/C=C(\Cl)C(=O)OCCC[N@+]1(C)CCc3cc(OC)c(OC)cc3[C@H]1Cc1cc(OC)c(OC)c(OC)c1)CC2 [Gantacurium, reference compound] yields half-life at 200 μg/ml of 12

---

Assay: L-cysteine adduction kinetics in vitro (HPLC)
Type: physicochemical
Details: pH 7.4 phosphate buffer with L-cysteine; calculated at [NMBA]0 0.000102 M (100 μg/ml), pH 7.4, 37° C.; read-out: L-cysteine adduction reaction half time t1/2
QUANTITY: half-life at 100 μg/ml (min)
Give just the number in min; leave the unit off.

Query COc1ccc(C[C@@H]2c3cc(OC)c(OC)cc3CC[N@@+]2(C)CCCOC(=O)/C=C/C(=O)OCCC[N@+]2(C)CCc3cc(OC)c(OC)cc3[C@H]2Cc2ccc(OC)c(OC)c2)cc1OC yields half-life at 100 μg/ml of 11.4
